Conditions: in n-butanol, 293.25 K
Observed Property: solubility (mole fraction)

INSERT INTO results (item_smiles, observed_property, numeric_result) VALUES
  ('Cc1ccc2ccccc2c1', 'solubility (mole fraction)', 0.223);

* * *

Conditions: in n-butanol, 288.35 K
Observed Property: solubility (mole fraction)

INSERT INTO results (item_smiles, observed_property, numeric_result) VALUES
  ('Cc1ccc2ccccc2c1', 'solubility (mole fraction)', 0.13);

* * *

Conditions: in n-heptane, 293.15 K
Observed Property: solubility (mole fraction)

INSERT INTO assay_data (item_smiles, observed_property, numeric_result) VALUES
  ('Cc1ccc2ccccc2c1', 'solubility (mole fraction)', 0.726);

* * *

Conditions: in ethanol, 278.25 K
Observed Property: solubility (mole fraction)

INSERT INTO measurements (item_smiles, numeric_result) VALUES
  ('Cc1ccc2ccccc2c1', 0.0389);

* * *

Conditions: in n-butanol, 303.25 K
Observed Property: solubility (mole fraction)

INSERT INTO measurements (item_smiles, observed_property, result) VALUES
  ('Cc1ccc2ccccc2c1', 'solubility (mole fraction)', 0.68);

* * *

Conditions: in n-butyl acetate, 288.15 K
Observed Property: solubility (mole fraction)

INSERT INTO assay_data (item_smiles, observed_property, result) VALUES
  ('Cc1ccc2ccccc2c1', 'solubility (mole fraction)', 0.729);

* * *

Conditions: in n-heptane, 288.15 K
Observed Property: solubility (mole fraction)

INSERT INTO results (item_smiles, numeric_result) VALUES
  ('Cc1ccc2ccccc2c1', 0.65);

* * *

Conditions: in n-butanol, 298.35 K
Observed Property: solubility (mole fraction)

INSERT INTO measurements (item_smiles, observed_property, numeric_result) VALUES
  ('Cc1ccc2ccccc2c1', 'solubility (mole fraction)', 0.37);

* * *

Conditions: in ethylene glycol, 283.25 K
Observed Property: solubility (mole fraction)

INSERT INTO measurements (item_smiles, numeric_result) VALUES
  ('Cc1ccc2ccccc2c1', 0.00811);

* * *

Conditions: in n-heptane, 278.15 K
Observed Property: solubility (mole fraction)

INSERT INTO assay_data (item_smiles, numeric_result) VALUES
  ('Cc1ccc2ccccc2c1', 0.502);

* * *

Conditions: in n-hexane, 288.35 K
Observed Property: solubility (mole fraction)

INSERT INTO assay_data (item_smiles, numeric_result) VALUES
  ('Cc1ccc2ccccc2c1', 0.443);

* * *

Conditions: in isopropanol, 278.25 K
Observed Property: solubility (mole fraction)

INSERT INTO results (item_smiles, numeric_result) VALUES
  ('Cc1ccc2ccccc2c1', 0.0276);

* * *

Conditions: in ethanol, 288.35 K
Observed Property: solubility (mole fraction)

INSERT INTO results (item_smiles, observed_property, numeric_result) VALUES
  ('Cc1ccc2ccccc2c1', 'solubility (mole fraction)', 0.109);

* * *

Conditions: in n-butyl acetate, 278.15 K
Observed Property: solubility (mole fraction)

INSERT INTO measurements (item_smiles, numeric_result) VALUES
  ('Cc1ccc2ccccc2c1', 0.621);

* * *

Conditions: in n-hexane, 298.35 K
Observed Property: solubility (mole fraction)

INSERT INTO results (item_smiles, observed_property, numeric_result) VALUES
  ('Cc1ccc2ccccc2c1', 'solubility (mole fraction)', 0.643);

* * *

Conditions: in ethanol, 293.25 K
Observed Property: solubility (mole fraction)

INSERT INTO results (item_smiles, numeric_result) VALUES
  ('Cc1ccc2ccccc2c1', 0.148);

* * *

Conditions: in acetone, 278.45 K
Observed Property: solubility (mole fraction)

INSERT INTO measurements (item_smiles, numeric_result) VALUES
  ('Cc1ccc2ccccc2c1', 0.218);

* * *

Conditions: in isopropanol, 288.35 K
Observed Property: solubility (mole fraction)

INSERT INTO measurements (item_smiles, observed_property, numeric_result) VALUES
  ('Cc1ccc2ccccc2c1', 'solubility (mole fraction)', 0.077);

* * *

Conditions: in 1,4-dioxane, 303.25 K
Observed Property: solubility (mole fraction)

INSERT INTO measurements (item_smiles, observed_property, result) VALUES
  ('Cc1ccc2ccccc2c1', 'solubility (mole fraction)', 0.817);

* * *

Conditions: in isopropanol, 283.25 K
Observed Property: solubility (mole fraction)

INSERT INTO assay_data (item_smiles, observed_property, numeric_result) VALUES
  ('Cc1ccc2ccccc2c1', 'solubility (mole fraction)', 0.0508);

* * *

Conditions: in 1,4-dioxane, 278.25 K
Observed Property: solubility (mole fraction)

INSERT INTO results (item_smiles, numeric_result) VALUES
  ('Cc1ccc2ccccc2c1', 0.468);

* * *

Conditions: in ethylene glycol, 293.25 K
Observed Property: solubility (mole fraction)

INSERT INTO assay_data (item_smiles, observed_property, numeric_result) VALUES
  ('Cc1ccc2ccccc2c1', 'solubility (mole fraction)', 0.00963);

* * *

Conditions: in n-heptane, 298.15 K
Observed Property: solubility (mole fraction)

INSERT INTO assay_data (item_smiles, numeric_result) VALUES
  ('Cc1ccc2ccccc2c1', 0.831);

* * *

Conditions: in n-butanol, 283.25 K
Observed Property: solubility (mole fraction)

INSERT INTO measurements (item_smiles, observed_property, numeric_result) VALUES
  ('Cc1ccc2ccccc2c1', 'solubility (mole fraction)', 0.0794);
